# Tested on: MDA-MB-435
# TEST_PROTOCOL: NCI tumour cell line growth inhibition, 48 h
Where a name gives a salt, the structure may show the parent alone. Calls of active or inactive are those of the source. No stated cut-off is given here; in the data, active = GI50 up to about 1.1 µM and inactive = higher.
Measured GI50, listed per entry for reference.

MOLECULE	RECORDED_RESULT
NCCCCNCCCN [SPERMIDINE TRIHYDROCHLORIDE]	27.4 µM (inactive)

Turning now to a further molecule:
[Q] Could you share what GI50 was measured for `Cc1ccc(Nc2nc3[nH]ccc3c(=O)[nH]2)cc1` , tested on MDA-MB-435?
[A] > 100 µM (inactive)

* * *

# Tested on: HL-60
# TEST_PROTOCOL: NCI tumour cell line growth inhibition, 48 h
Activity calls are given as the source filed them. Cut-off read from the data, not from the text of the source: active = GI50 up to about 1.1 µM and inactive = higher.
PROPERTY_NAME: GI50

COMPOUND	EXPERIMENTAL_TARGET	PROPERTY_NAME	RECORDED_RESULT
Cn1nc(N)nc1N=S(C)(C)=N	HL-60	GI50	> 100 µM (inactive)

[Q] Could you share what GI50 was measured for Oc1ccccc1C(c1cc2c(cc1O)OCO2)N1CCOCC1 (configuration not stated) , tested on HL-60?
[A] 2.24 µM (inactive)

[Q] Could you share what GI50 was measured for `CCC/C(Cl)=N\OC(=O)Nc1cccc(C(F)(F)F)c1` , tested on HL-60?
[A] 1.88 µM (inactive)

[Q] Could you share what GI50 was measured for `CCOC(=O)/C(=C\NC#N)c1nc2ccccc2[nH]1` , tested on HL-60?
[A] 45.5 µM (inactive)

[Q] Could you share what GI50 was measured for `CSC1=Nc2ccccc2N=C(c2ccc(Cl)cc2)C1` , tested on HL-60?
[A] 35.3 µM (inactive)
